System: HOP-62
Assay: NCI tumour cell line growth inhibition, 48 h
Activity calls are given as the source filed them. Rule as the data show it: active = GI50 up to about 1.1 µM and inactive = higher.
Pick one: active, inactive

1) Cc1csc2[n+]1C(=O)/C(=C\c1ccc([N+](=O)[O-])cc1)S2 ... inactive
2) c1ccc2c(c1)[nH]c1nc3cc(-c4ccc5nc6c(nc5c4)[nH]c4ccccc46)ccc3nc12 ... inactive
3) N#CC1(C#N)NC(c2ccsc2)C(C#N)(C#N)NC1c1ccsc1 (centres undefined) ... inactive
4) CCOC(=O)c1ccc(Nc2nc3ccccc3nc2-c2cccs2)cc1 ... inactive
5) O=C(c1ccc2ccccc2c1)C1S(=O)(=O)OCCOS1(=O)=O ... inactive
6) COc1cc(O)c2c(c1O)C(=O)c1cc(C)ncc1C2=O ... inactive
7) NC(=S)N/N=C/c1nccc2ccccc12 ... active
8) Cc1cc(N2CCN(C)CC2)n2nc(-c3ccc(Cl)cc3)nc2n1 ... inactive
9) C1CCCCC2(CCCCCCCCC3(CCC1)OCCO3)OCCO2 ... inactive
10) O=c1c2c(sc3ccccc13)NCN(CCc1ccccc1)C2 ... inactive

Call for entry `CCOc1cc2c(OCc3ccccc3)cc3c4cc(OC)c(OC)cc4c[n+](C)c3c2cc1OC` :
inactive

Call for entry CC(C)Cc1cc2c(cc1O)CCC1C2CC[C@@]2(C)C1CC[C@@H]2O (some centres undefined) :
inactive

Call for entry `COc1cc2nc(-c3cccc(N(C)C)c3)cc(O)c2cc1OC` :
inactive

Call for entry `Cc1ccc(N)c(S)c1` :
inactive

---

Tested on: OVCAR-4
Assay: NCI tumour cell line growth inhibition, 48 h
Activity calls are given as the source filed them. No stated cut-off is given here; in the data, active = GI50 up to about 1.1 µM and inactive = higher.
MEASUREMENT_KIND: GI50

Please review the following examples before continuing.
1. COc1cc2nc(-c3cccc(N(C)C)c3)cc(O)c2cc1OC ... > 100 µM (inactive)
2. O=C(O)c1ccc([Se][Se]c2ccc(C(=O)O)cc2)cc1 ... 19.2 µM (inactive)

Would you kindly look at the next entry?
Can you share its GI50? I mean this compound: `CC(C)(c1ccc(Oc2ccc(C#N)c(C#N)c2)cc1)c1ccc(Oc2ccc(C#N)c(C#N)c2)cc1`
> 10 µM (inactive)

---

Test system: BT-549
Assay: NCI tumour cell line growth inhibition, 48 h
Calls of active or inactive are those of the source. No stated cut-off is given here; in the data, active = GI50 up to about 1.1 µM and inactive = higher.
Pick one: active, inactive

1) Cc1sc2c(c1C)/C(=N\O)c1cccn1-2 ... inactive
2) Oc1nc2cc3nc(O)c(O)nc3cc2nc1O ... inactive
3) COc1cc(NS(C)(=O)=O)ccc1N1Cc2c[nH]c3ccc4nc(C)cc1c4c23 ... inactive
4) CC1(C)C2CC(O)C1CCC2=O (centres undefined) ... inactive
5) FC(F)(F)C1(c2ccccc2)SCc2nc3ccccc3n21 (centres undefined) ... inactive

Call for entry `CN1CC[C@@H](c2c(O)cc(O)c3c(=O)cc(-c4ccccc4Cl)oc23)[C@@H](O)C1` :
active

Call for entry `COC(=O)c1c(O)ccc2c1c1c(n2-c2ccc(OC)cc2)C(=O)c2ccccc2C1=O` :
inactive

Call for entry `O=C1c2cc([N+](=O)[O-])ccc2-c2cccc(F)c21` :
inactive

Call for entry `O=C(CCn1ccnc1[N+](=O)[O-])NCCCn1ccnc1[N+](=O)[O-]` :
inactive

---

GI50 data for HCT-15 follow.

Please review the following examples before continuing.
1. Cc1ccc(C(CCO)CCO)nc1 ... > 100 µM
2. CC(NC(=O)Cc1ccccc1)NC(=O)C(C)C(=O)Nc1ccccc1 (stereo not drawn) ... > 100 µM

Notebook entry, HCT-15 assay: GI50 of `N#CCCN(c1ccc(/C=N/c2ccc(C(=O)O)cc2)cc1)S(=O)(=O)c1ccccc1` = ?
> 100 µM

These entries and their values trace back to ChEMBL document CHEMBL1201862.
